# TESTED_SYSTEM: T1, hIL10Rb-his (Sino Biological, Catalog#10945) (human, UniProt Q08334 20-220)
# T1 construct: Bought; also called Sino Biological cat#10945-H08H; not shown: C-terminal poly-His tag
# T1 sequence: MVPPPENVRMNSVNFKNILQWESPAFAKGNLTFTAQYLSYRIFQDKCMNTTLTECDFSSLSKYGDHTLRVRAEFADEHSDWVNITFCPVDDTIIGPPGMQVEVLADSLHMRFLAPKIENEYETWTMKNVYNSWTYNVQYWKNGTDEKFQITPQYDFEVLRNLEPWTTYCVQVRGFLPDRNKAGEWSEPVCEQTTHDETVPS
# PROCEDURE_DETAILS: SPR Biacore T200; biotinylated dual VHH captured on CAP biotin chip, hIL10Rb-his analyte; 1:1 Langmuir fit
So I've got a bunch of binders here, and I need their pKd values.
Answers are plain numbers, as −log10 of the molar value.

Example entries and their recorded answers appear below.
{"BINDER": "hIL10Rb_VHH12-hIL10Ra_VHH8 biotin (bispecific antibody, conjugated to biotin (site not stated)) QVQLQESGGGSVQAGGSLRLSCAASGYTYSSYCMGWFRQAPGKEREGVAHIDSDGSTSYADSVKGRFTISKDNAKNTLYLQMNSLKPEDTAMYYCAADPIPGPGYCDGGPNKYWGQGTQVTVSSGGGSQVQLQESGGGSVQAGGSLRLSCAASGYTYSMYCMGWFRQAPGKEREGVAQINSDGSTSYADSVKGRFTISKDNAKNTLYLQMNSLKPEDTAMYYCAADSRVYGGSWYERLCGPYTYEYNYWGQGTQVTVSS", "MEASURED_PROPERTY": "pKd", "MEASURED": 8.82}
{"BINDER": "hIL10Ra_VHH12-hIL10Rb_VHH27 biotin (bispecific antibody, conjugated to biotin (site not stated), also called IL10 VHH DR509 biotin; DR509) QVQLQESGGGSVQAGGSLRLSCTVSGYTYSSNCMGWFRQAPGKEREGVATIYTGGGNTYYADSVKGRFTISQDNAKNTVYLQMNNLKPEDTAMYYCAAEPLSRVYGGSCPTPTFDYWGQGTQVTVSSGGGSQVQLQESGGGSVQTGGSLRLSCAASGYTYLRGCMGWFRQAPGKEREGVAVMDVVGDRRSYIDSVKGRFTISRDNAANSVYLQMDNLKPEDTAMYYCTAGPNCVGWRSGLDYWGQGTQVTVSS", "MEASURED_PROPERTY": "pKd", "MEASURED": 8.72}
{"BINDER": "hIL10Ra_VHH17-hIL10Rb_VHH16 biotin (bispecific antibody, conjugated to biotin (site not stated)) QVQLQESGGGSVQAGGSLRLSCAASGYSNCSYDMTWYRQAPGKEREFVSAIHSDGSTRYADSVKGRFFISQDNAKNTVYLQMNSLKPEDTAMYYCKTDPLHCRAHGGSWYSVRANYWGQGTQVTVSSGGGSQVQLQESGGGSVEAGGSLRLSCAASGYTHSSYCMGWFRQAPGKEREGVAAIDVDGSTTYADSVKGRFTISKDNAKNTLYLQMNSLKPEDTGMYYCAAEFADCSSNYFLPPGAVRYWGQGTQVTVSS", "MEASURED_PROPERTY": "pKd", "MEASURED": 8.54}

Continue with the next binder.
Data request: For the binder hIL10Rb_VHH1-hIL10Ra_VHH9-biotin (bispecific antibody, conjugated to biotin (site not stated)) QVQLQESGGGSVQAGGSLRLSCAASGYTYSSGCMGWFRQAPGKEREAVAAINSDGSTSYADSVKGRFTISKDNAKNTLYLQMNSLKPEDTAMYYCAAEPYCSGGYPRWSVAEFGYWGQGTQVTVSSGGGSQVQLQESGGGSVQAGGSLRLSCAVSGYAYSTYCMGWFRQAPGKEREGVAAIDSGGSTSYADSVKGRFTISKDNAKNTLYLRMNSLKPEDTAMYYCAAVPPPPDGGSCLFLGPEIKVSKADFRYWGQGTQVTVSS , what pKd is on record?
Data returned: 8.57
